- System: α7 integrin promoter
- method.description: muscle cell-based assay: α7βgal+/− myoblasts/myotubes, LacZ reporter, β-galactosidase cleavage of FDG
- Parameters: species or system mouse
- measurement.parameters: Table 12; key not given
measurement.label: Fit Curve Class
Enter a number only.

Name the value of Fit Curve Class reported for CNc1nnc(SCC(=O)c2cc(C)n(C3CC3)c2C)s1 when tested on α7 integrin promoter. 2.1

Name the value of Fit Curve Class reported for Cc1ccccc1C(=O)Nc1scc(-c2ccc(Br)cc2)c1C(=O)O when tested on α7 integrin promoter. 1.1

Name the value of Fit Curve Class reported for CC(NC(=O)c1cn(C)c2ccc(S(=O)(=O)N3CCCC3)cc2c1=O)c1ccccc1 (stereo not shown) when tested on α7 integrin promoter. 1.1

Name the value of Fit Curve Class reported for COc1ccc(CCNC(=O)c2nn(C)c3c2CS(=O)(=O)c2ccccc2-3)cc1OC when tested on α7 integrin promoter. 2.1

Name the value of Fit Curve Class reported for CCOC(=O)C1CCCN(C(=O)CNS(=O)(=O)c2ccc(Br)s2)C1 (stereo not shown) when tested on α7 integrin promoter. 1.1

Name the value of Fit Curve Class reported for CCOc1ccc2oc(C(=O)OCC(=O)NC(=O)NC)c(C)c2c1 when tested on α7 integrin promoter. 2.2

Name the value of Fit Curve Class reported for CCCn1c(-c2cc(OC)c(OC)c(OC)c2)nc2c1c(=O)[nH]c(=O)n2Cc1ccccc1 when tested on α7 integrin promoter. 2.1

Name the value of Fit Curve Class reported for CCCN(C(=O)c1ccc(S(=O)(=O)N2CCCC2)cc1)C1CCS(=O)(=O)C1 (stereo not shown) when tested on α7 integrin promoter. 2.2

Name the value of Fit Curve Class reported for Cc1cc(NC(=O)c2ccc(Cl)cc2Cl)no1 when tested on α7 integrin promoter. 1.1

Name the value of Fit Curve Class reported for CC1(C)CC(O)=C/C(=N\c2ccc(C(=O)O)c(O)c2)C1 when tested on α7 integrin promoter. 2.1

Name the value of Fit Curve Class reported for Cc1cc(N2CCOCC2)nc2ccc(N/C(S)=N/Cc3ccc4c(c3)OCO4)cc12 when tested on α7 integrin promoter. 2.1

Name the value of Fit Curve Class reported for CNc1cc([N+](=O)[O-])ccc1OCc1ccccc1 when tested on α7 integrin promoter. 2.1

Name the value of Fit Curve Class reported for COC(=O)C(=O)C/C(=N/Nc1ncnc2ccccc12)c1ccc(Cl)cc1 when tested on α7 integrin promoter. 2.1

Name the value of Fit Curve Class reported for CCOc1ccccc1NC(=O)c1cccc2c1C(=O)N(C1CCCCC1)C2 when tested on α7 integrin promoter. 1.1

Name the value of Fit Curve Class reported for COc1ccc(C(=O)N/C(=C/c2cccnc2)C(=O)N2CCN(C)CC2)cc1OC when tested on α7 integrin promoter. 2.2

Name the value of Fit Curve Class reported for COc1cc(=O)n(C)c2ccccc12 when tested on α7 integrin promoter. 1.1

Name the value of Fit Curve Class reported for COc1ccc(Nc2ncnc3ccc(Br)cc23)cc1OC when tested on α7 integrin promoter. 2.2

Name the value of Fit Curve Class reported for CC(C)CC1NC(=O)N(CC(=O)N2c3ccccc3NC(=O)C2(C)C)C1=O (stereo not shown) when tested on α7 integrin promoter. 1.1

Name the value of Fit Curve Class reported for COc1ccccc1-c1coc2c3c(ccc2c1=O)OC1CCCCN1C3 (stereo not shown) when tested on α7 integrin promoter. 1.1
